Biological target: T1, EN2 (Engrailed-2) (UniProt P19622 P19622:1-333)
T1 sequence: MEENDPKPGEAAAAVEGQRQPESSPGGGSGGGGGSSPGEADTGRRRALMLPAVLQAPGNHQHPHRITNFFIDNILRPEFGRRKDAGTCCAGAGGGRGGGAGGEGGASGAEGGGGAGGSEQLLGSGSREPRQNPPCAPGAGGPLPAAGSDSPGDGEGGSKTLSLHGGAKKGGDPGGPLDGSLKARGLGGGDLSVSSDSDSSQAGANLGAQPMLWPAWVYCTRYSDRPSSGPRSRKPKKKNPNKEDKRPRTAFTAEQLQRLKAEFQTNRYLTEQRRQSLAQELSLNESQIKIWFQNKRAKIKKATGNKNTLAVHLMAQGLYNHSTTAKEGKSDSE
Experiment: FAM fluorescence; second strand printed 3'-5' in Table 1; EMSA, SPR and SYBR Green I displacement also showed binding of TAATTA dsDNA
Conditions: tags: (His)6-tag, pET28a, E. coli BL21(DE3); label: FAM
pKd: −log10 of the molar value.

BINDER	pKd
dsDNA probe (dsDNA) DNA 1: CGTGTAATTACCTC DNA 2: GAGGTAATTACACG	7.02
